- protocol summary: GFP drop in mixed WT/humanized-ribosome E. coli culture – GFP/RFP fluorescence, OD600, single point, bacterial rRNA inhibitor project, primary screen (AID 720706)
- stated conditions: E. coli WT GFP vs humanized-ribosome RFP mutants, 24 h; measured here: OD600 growth, DMSO median 0, no signal -100
Out of some 350,000 compounds screened, about 5,500 (1.6%) were called active. What follows is part of a selection rich in actives, with near analogues and random picks from the rest.
Below: a set of entries, each annotated with reported OD600 change.
Your answer is read as %, so omit the unit and give the number.

cpd smiles	unit abbrev	OD600 change
Nc1nc(SCC(=O)NCCN2CCOCC2)nc2sc3c(c12)CCC3	%	8.61
C[C@@H]1CN([C@H](C)CO)C(=O)c2cc(NC(=O)C3CCCCC3)ccc2O[C@@H]1CN(C)CC1CCCCC1	%	5.96
O=C(Nc1nnc(SCc2c(Cl)cccc2Cl)s1)c1cccc([N+](=O)[O-])c1	%	-3.04
COc1ccccc1CNC(=O)C[C@@H]1C[C@H]2c3cc(NC(=O)CN(C)C)ccc3O[C@H]2[C@@H](CO)O1	%	-4.08
O=C(NCc1ccc2c(c1)OCO2)c1sccc1Br	%	-4.74
O=C(NCc1ccccc1Cl)NC(=O)c1csc([N+](=O)[O-])c1	%	2.99
c1ccc2sc(NN=C3CCCC3)nc2c1	%	-19.9

Continue with the next compound.
Problem: Request the reported OD600 change associated with CN(C)CCn1c(=S)[nH]c2ccc(Cl)cc2c1=O
Solution: 0.375

---

- protocol summary: GFP drop in mixed WT/humanized-ribosome E. coli culture – GFP/RFP fluorescence, OD600, single point, bacterial rRNA inhibitor project, primary screen (AID 720706)
- stated conditions: E. coli WT GFP vs humanized-ribosome RFP mutants, 24 h; measured here: OD600 growth, DMSO median 0, no signal -100
Screen size: about 350,000 compounds; about 5,500 (1.6%) were called active. The full list was thinned out, with actives kept by preference.
The entries below come with measured OD600 change values attached.

molecule	OD600 change
Cc1ccc(CNC(=O)c2cc(-c3ccccc3C)n(CC3CC(c4cccc([N+](=O)[O-])c4)=NO3)n2)cc1 (stereo not drawn)	10.7%
Cc1ccccc1-c1cc(C(=O)NCC2CC2)n(CC2CC(c3cccnc3)=NO2)n1 (stereo not drawn)	-3.34%
COc1cccc(NC(=O)C2CCCN(c3ncnc4c3nc3n4CCCCC3)C2)c1 (stereo not drawn)	-29.9%
COc1cc(/C=C/C(=O)OCC(=O)c2ccccc2)cc(OC)c1OC	-28.1%
CC(=O)Nc1cccc2c1O[C@@H](CN(C)C(C)=O)[C@@H](C)CN(C)C2=O	2.46%
COc1ccc(NS(=O)(=O)c2cccc(C(=O)NCCc3ccc(S(N)(=O)=O)cc3)c2)cc1	-4.13%
Cc1ccc(-n2c(C)cc(C(=O)CN3C(=O)C(=O)N(C4CCCC4)C3=O)c2C)cc1	-20.5%
CCC(C)(C)NC(=O)/C=C/c1cc(OC)c(OC)c(S(=O)(=O)N2CCc3ccccc32)c1	13.4%

Problem: Requested field: OD600 change. Item: COc1cccc(NS(=O)(=O)c2ccc(-c3coc(C)n3)cc2)c1
Solution: -10.5%

Problem: # OD600 change lookup, item Cc1ccccc1-c1cc(C(=O)NCc2cccs2)n(CC2CC(c3cccnc3)=NO2)n1 (stereo not drawn)
Solution: -10.9%

Problem: Name the recorded OD600 change for COc1ccc(-c2ccc3n(c2=O)C[C@@H]2[C@@H](CO)[C@H](C(=O)Nc4ccccc4)[C@H]3N2C)cc1 .
Solution: -0.765%

Problem: # lookup: OD600 change of COc1ccc(NS(=O)(=O)c2ccc(N3CCN(CCO)CC3)c([N+](=O)[O-])c2)cc1
Solution: 8.86%

Problem: Endpoint output: OD600 change of Cc1cc(C(=O)COc2ccccc2Cl)c(C)n1C1CC1 . Value?
Solution: -34.3%

Source listed as PubChem BioAssay AID720706.
